Could you please report measured activity remaining for the items listed next?
- tgt: Muscarinic acetylcholine receptor M5 (Homo sapiens)
- assay.explanation: M5 muscarinic receptor negative allosteric modulators, cell-based, single concentration, human M5 (AID 743025)
- condition.info: CHO-K1 hM5, ACh EC80 calcium flux, Fluo-4; at 10 µM; stronger effect = lower value
Give the value, in units of %, as a plain number.

Return value of activity remaining for input O=C(c1ccccc1)N1CCN2C(=O)c3ccccc3C12c1ccccc1 (configuration not stated) , no commentary. 74.8

Give the reported value of activity remaining for this record: O=C(c1ccc(Oc2ccccc2)cc1)N1CCN2C(=O)c3ccccc3C12c1ccccc1 (configuration not stated) 75.1

Supply reported activity remaining belonging to this compound: CC(C)(C)NC(=O)N1CCN2C(=O)c3ccccc3C12c1ccccc1 (configuration not stated) 83.8

For the compound O=C(c1ccc(Cl)cc1)N1CCN2C(=O)c3ccccc3C12c1ccccc1 (configuration not stated) , report activity remaining. 89.9

Dear colleague, please send me the reported activity remaining for O=C(c1ccccc1)N1CCCN2C(=O)c3ccccc3C12c1ccc(Cl)cc1 (configuration not stated) when you can. 82.5

For the compound O=C(Nc1ccccc1)N1CCN2C(=O)c3ccccc3C12c1ccccc1 (configuration not stated) , report activity remaining. 85.4

Item Cc1ccc(C23c4ccccc4C(=O)N2CCN3C(=O)c2cc(F)cc(F)c2)cc1 (configuration not stated) : provide activity remaining 2.43

Check the records and state activity remaining for O=C(c1ccc(OC(F)(F)F)cc1)N1CCN2C(=O)c3ccccc3C12c1ccc(F)cc1 (configuration not stated) 69.4

Return reported activity remaining. Input compound: O=C(c1ccc(OC(F)(F)F)cc1)N1CCN2C(=O)c3ccccc3C12c1ccccc1 (configuration not stated) 1.8

Answer with the recorded activity remaining of COc1ccc(C23c4ccccc4C(=O)N2CCN3C(=O)c2cccc(C(F)(F)F)c2)cc1 (configuration not stated) only. 47.9

# return recorded activity remaining for input O=C(c1ccc(F)cc1F)N1CCN2C(=O)c3ccccc3C12c1ccccc1 (configuration not stated) 69

Return value of activity remaining for input `O=C(c1ccccc1)c1ccccc1C(=O)N1CCN(C(=O)c2ccccc2)CC1` , no commentary. 85.5
